// pIC50 lookup, one value per entry
testedTarget: P2X purinoceptor 3 (Homo sapiens)
Sequence (P56373 whole entry): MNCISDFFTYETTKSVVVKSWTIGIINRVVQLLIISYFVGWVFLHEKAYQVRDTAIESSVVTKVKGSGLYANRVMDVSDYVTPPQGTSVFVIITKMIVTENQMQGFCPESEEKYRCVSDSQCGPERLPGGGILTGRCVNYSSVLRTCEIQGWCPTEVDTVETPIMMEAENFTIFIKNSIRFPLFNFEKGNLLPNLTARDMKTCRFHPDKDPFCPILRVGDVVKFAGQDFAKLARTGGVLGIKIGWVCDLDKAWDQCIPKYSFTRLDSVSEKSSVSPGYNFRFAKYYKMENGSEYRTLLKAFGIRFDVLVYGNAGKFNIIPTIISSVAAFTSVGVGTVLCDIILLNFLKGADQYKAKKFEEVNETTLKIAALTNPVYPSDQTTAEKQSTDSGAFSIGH
protocol: The compound was evaluated for antagonist activity against recombinant human P2X purinoceptor 3 (P2X3 )
pIC50: −log10 of the molar value.

{"compound": "Cc1nc(/N=N/c2cc(S(=O)(=O)O)ccc2S(=O)(=O)O)c(COP(=O)(O)O)c(C=O)c1O [ISOPPADS]", "testedTarget": "P2X purinoceptor 3 (Homo sapiens)", "pIC50": 7.08}
{"compound": "O=C(Nc1cccc(C(=O)Nc2ccc(S(=O)(=O)O)c3cc(S(=O)(=O)O)cc(S(=O)(=O)O)c23)c1)Nc1cccc(C(=O)Nc2ccc(S(=O)(=O)O)c3cc(S(=O)(=O)O)cc(S(=O)(=O)O)c23)c1", "testedTarget": "P2X purinoceptor 3 (Homo sapiens)", "pIC50": 4.55}

---

testedTarget: P2Y purinoceptor 1 (Meleagris gallopavo, UniProt P49652)
Sequence (P49652 whole entry): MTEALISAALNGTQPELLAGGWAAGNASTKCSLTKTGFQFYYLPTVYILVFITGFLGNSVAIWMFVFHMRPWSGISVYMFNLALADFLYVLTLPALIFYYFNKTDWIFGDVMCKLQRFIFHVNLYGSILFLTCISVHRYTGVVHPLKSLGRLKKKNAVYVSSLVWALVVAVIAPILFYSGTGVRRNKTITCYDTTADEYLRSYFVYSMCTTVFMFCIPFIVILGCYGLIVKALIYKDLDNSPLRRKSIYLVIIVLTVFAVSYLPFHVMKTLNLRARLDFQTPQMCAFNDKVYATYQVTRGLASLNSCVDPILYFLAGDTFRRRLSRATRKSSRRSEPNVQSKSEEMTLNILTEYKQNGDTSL
protocol: Evaluated for agonist activity against phospholipase C coupled P2Y purinoceptor 1 (P2Y1) of turkey erythrocytes
Assay type: functional

{"compound": "Nc1ncnc2c1ncn2[C@@H]1CO[C@H](COP(=O)(O)O)[C@@H](OP(=O)(O)O)C1", "EC50": "3 nM"}
{"compound": "CCCCCCSc1nc(N)c2ncn([C@@H]3O[C@H](COP(=O)(O)O)[C@@H](O)[C@H]3O)c2n1", "EC50": "4.8 nM"}
{"compound": "Nc1ncnc2c1ncn2[C@@H]1O[C@H](CO[P@](=O)(O)O[P@](=O)(O)O[P@@](=O)(O)S)[C@@H](O)[C@H]1O", "EC50": "1300 nM"}
{"compound": "CNc1nc(Cl)nc2c1ncn2[C@H]1C[C@@H](OP(=O)(O)O)[C@]2(COP(=O)(O)O)C[C@H]12", "EC50": "52 nM"}
{"compound": "Nc1ccc(CCSc2nc(N)c3ncn([C@@H]4O[C@H](COP(=O)(O)OP(=O)(O)OP(=O)(O)O)[C@@H](O)[C@H]4O)c3n2)cc1", "EC50": "1.5 nM"}
{"compound": "Nc1ncnc2c1ncn2[C@H]1CC(OP(=O)(O)O)C2(COP(=O)(O)O)CC12 (some centres undefined)", "EC50": "155 nM"}
{"compound": "Nc1ncnc2c1ncn2[C@@H]1O[C@H](COP(=O)(O)OP(=O)(O)CP(=O)(O)O)[C@@H](O)[C@H]1O", "EC50": "> 100000 nM"}
{"compound": "Cc1nc(/N=N/c2cc(S(=O)(=O)O)ccc2Cl)c(COP(=O)(O)O)c(C=O)c1O", "EC50": "4.4 nM"}
{"compound": "Nc1ncnc2c1ncn2[C@@H]1O[C@H](COP(=O)(O)CP(=O)(O)OP(=O)(O)O)[C@@H](O)[C@H]1O", "EC50": "> 100000 nM"}
